Overview of reported pIC50 across a group of compounds:
target: human V2 receptor (Homo sapiens, UniProt P30518); experiment: Cellular in vitro assay for determining vasopressin receptor activity, V2 receptor cell line (CRE-luciferase); settings: CHO cell line transfected with the human V2 receptor; agonist [Arg8]-vasopressin at EC50 concentration; read-out: IC50 hV2
Sequence (P30518 whole entry): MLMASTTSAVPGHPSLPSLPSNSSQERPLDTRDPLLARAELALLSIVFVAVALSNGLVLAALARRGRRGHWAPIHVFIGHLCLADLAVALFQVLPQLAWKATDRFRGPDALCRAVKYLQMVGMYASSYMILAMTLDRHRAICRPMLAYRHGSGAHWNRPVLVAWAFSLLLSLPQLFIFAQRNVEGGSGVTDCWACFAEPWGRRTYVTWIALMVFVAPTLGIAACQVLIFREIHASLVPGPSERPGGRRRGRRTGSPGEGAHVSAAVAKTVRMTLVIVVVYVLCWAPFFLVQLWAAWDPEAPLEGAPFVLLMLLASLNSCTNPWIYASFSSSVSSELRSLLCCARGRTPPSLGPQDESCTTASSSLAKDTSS
The value called pIC50 is obtained by taking minus log10 of the concentration in mol/L.

Compound	Measured number
CC(C)(N)CNc1nc(Cn2nc(-c3ccc(Cl)cc3)n(C[C@H](O)C(F)(F)F)c2=O)nn1-c1ccccc1	7.02
O=C1CN(c2nc(Cn3nc(-c4ccc(Cl)cc4)n(C[C@H](O)C(F)(F)F)c3=O)nn2-c2ccccc2Cl)CCN1	7.98
O=c1n(Cc2nc(N3CCC3)n(-c3cccc(F)c3)n2)nc(-c2ccc(Cl)cc2)n1C[C@H](O)C(F)(F)F	8.21
O=c1n(Cc2nc(N3CCC4OCCC43)n(-c3ccccc3Cl)n2)nc(-c2ccc(Cl)cc2)n1C[C@H](O)C(F)(F)F (stereo partly shown)	8.45
O=C1NCCN1CCNc1nc(Cn2nc(-c3ccc(Cl)cc3)n(C[C@H](O)C(F)(F)F)c2=O)nn1-c1ccccc1Cl	8.26
O=c1n(Cc2nc(N3CCC(O)(C(F)(F)F)C3)n(-c3ccccc3Cl)n2)nc(-c2ccc(Cl)cc2)n1C[C@H](O)C(F)(F)F (single isomer, unassigned) [Example 15]	7.94

Recorded pIC50 of O=c1n(Cc2nc(NCCO)n(-c3ccccc3Cl)n2)nc(-c2ccc(Cl)cc2)n1C[C@H](O)C(F)(F)F , please. 8.55

Recorded pIC50 of O=C1CN(c2nc(Cn3nc(-c4ccc(Cl)cc4)n(C[C@H](O)C(F)(F)F)c3=O)nn2CCC(F)(F)F)CCN1 , please. 6.09

Recorded pIC50 of O=c1n(Cc2nc(NCC3(O)CCCNCC3)n(-c3ccccc3Cl)n2)nc(-c2ccc(Cl)cc2)n1C[C@H](O)C(F)(F)F (mixture of isomers) , please. 7.92

Recorded pIC50 of O=c1n(Cc2nc(NCC(O)C(F)(F)F)n(-c3ccccc3Cl)n2)nc(-c2ccc(Cl)cc2)n1C[C@H](O)C(F)(F)F (mixture of isomers) , please. 8.73
